Target: human adenosine A3 receptor (Homo sapiens, UniProt P0DMS8)
Construct: expressed in transfected cells; host or cells: CHO-K1 cells, stably transfected
Sequence (P0DMS8 1-318): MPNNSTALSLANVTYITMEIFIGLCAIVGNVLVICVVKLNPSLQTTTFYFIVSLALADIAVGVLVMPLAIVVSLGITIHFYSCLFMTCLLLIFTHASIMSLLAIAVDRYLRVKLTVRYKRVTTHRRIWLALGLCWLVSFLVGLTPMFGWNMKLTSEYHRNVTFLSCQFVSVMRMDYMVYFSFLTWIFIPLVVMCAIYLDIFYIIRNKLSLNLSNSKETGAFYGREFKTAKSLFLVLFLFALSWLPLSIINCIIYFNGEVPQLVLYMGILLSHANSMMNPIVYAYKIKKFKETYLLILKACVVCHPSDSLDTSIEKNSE
Test: Intracellular cAMP levels (inhibition of forskolin-stimulated cAMP production)
Format: cell-based
Details: Table 1; CHO-K1 cells expressing human adenosine A3 receptor, forskolin 10 μM

Compound: Cc1cc2c(Cl)nc3c(ncn3[C@H]3[C@H](O)[C@H](O)[C@]4(c5ncc[nH]5)C[C@H]34)c2[nH]1
Units: nM
EC50: 0.14
//
Compound: Cn1nnc([C@@]23C[C@@H]2[C@@H](n2cnc4c5[nH]c(CO)cc5c(Cl)nc42)[C@H](O)[C@@H]3O)n1
Units: nM
EC50: 3
//
Compound: O[C@H]1[C@H](n2cnc3c(NCC(F)F)cc(Cl)nc32)[C@H]2C[C@@]2(c2ncn[nH]2)[C@H]1O [Compound 14B]
Units: nM
EC50: 27.2
//
Compound: Cn1nnc([C@@]23C[C@@H]2[C@@H](n2cnc4c5[nH]c(C=O)cc5c(Cl)nc42)[C@H](O)[C@@H]3O)n1
Units: nM
EC50: 100
//
Compound: N#Cc1cc(NCc2cc(Cl)ccc2Cl)c2ncn([C@H]3[C@H](O)[C@H](O)[C@]4(c5ncc[nH]5)C[C@H]34)c2n1
Units: nM
EC50: 1.87
//
Compound: CCNc1cc(Cl)nc2c1ncn2[C@H]1[C@H](O)[C@H](O)[C@]2(c3ncc[nH]3)C[C@H]12 [Compound 12B]
Units: nM
EC50: 5.5
//
Compound: CCNc1cc(Cl)nc2c1ncn2[C@H]1[C@H](O)[C@H](O)[C@]2(c3ncco3)C[C@H]12 [Compound 10B]
Units: nM
EC50: 16.1
//
Compound: Cc1nc2c(Cl)nc3c(ncn3[C@H]3[C@H](O)[C@H](O)[C@]4(c5nnn(C)n5)C[C@H]34)c2[nH]1
Units: nM
EC50: 1
//
Compound: Cc1cc2c(Cl)nc3c(ncn3[C@H]3[C@H](O)[C@H](O)[C@]4(c5ncn(C)n5)C[C@H]34)c2[nH]1
Units: nM
EC50: 0.17
//
Compound: O[C@H]1[C@H](n2cnc3c(NCc4cc(Cl)ccc4Cl)cc(Cl)nc32)[C@H]2C[C@@]2(c2ncc[nH]2)[C@H]1O
Units: nM
EC50: 4.61
//
Compound: Cn1nnc([C@@]23C[C@@H]2[C@@H](n2cnc4c5[nH]c(C(F)F)cc5c(Cl)nc42)[C@H](O)[C@@H]3O)n1
Units: nM
EC50: 1

meta.source: patent US20260008805A1
